The values you see were collected from paper PMC9157728.

- TESTED ON: FAP (Homo sapiens, UniProt Q12884)
- Sequence (Q12884 1-760): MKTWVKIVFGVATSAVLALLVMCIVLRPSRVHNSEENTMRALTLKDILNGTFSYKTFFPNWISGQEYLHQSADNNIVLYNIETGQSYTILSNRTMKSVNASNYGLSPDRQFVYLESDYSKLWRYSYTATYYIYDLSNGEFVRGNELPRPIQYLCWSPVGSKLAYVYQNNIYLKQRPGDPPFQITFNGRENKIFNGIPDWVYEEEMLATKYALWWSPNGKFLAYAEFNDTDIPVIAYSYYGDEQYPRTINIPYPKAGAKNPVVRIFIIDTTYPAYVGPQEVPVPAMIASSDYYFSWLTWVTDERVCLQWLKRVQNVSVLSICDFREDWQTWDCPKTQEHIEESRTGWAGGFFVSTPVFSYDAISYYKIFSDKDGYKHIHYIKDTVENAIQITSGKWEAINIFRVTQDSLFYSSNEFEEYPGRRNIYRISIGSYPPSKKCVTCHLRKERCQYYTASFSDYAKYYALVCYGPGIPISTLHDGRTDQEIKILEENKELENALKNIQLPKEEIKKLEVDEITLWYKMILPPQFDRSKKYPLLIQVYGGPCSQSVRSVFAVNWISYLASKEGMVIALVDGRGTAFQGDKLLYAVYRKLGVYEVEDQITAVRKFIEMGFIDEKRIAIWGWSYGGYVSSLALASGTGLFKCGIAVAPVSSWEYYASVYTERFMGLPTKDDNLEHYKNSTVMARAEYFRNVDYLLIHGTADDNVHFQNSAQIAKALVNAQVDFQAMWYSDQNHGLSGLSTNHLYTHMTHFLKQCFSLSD
- PROTOCOL TEXT: Saturation binding assay of ^68Ga-labeled tracers in HT-1080-FAP and HT-1080 cells
- Design: host or cells: HT-1080 human fibrosarcoma cells (HT-1080-FAP)
- CONDITIONS USED: ^68Ga-labeled tracer, 0.01-200 nM, 1 h, medium without FBS; read-out: dissociation constant (Kd)
Exercise: for every item that follows, state its recorded pKd.
As a rule, pKd stands for the negative log10 of the concentration, concentration in M.

Task item: Given the entry N#C[C@@H]1CC(F)(F)CN1C(=O)CNC(=O)c1ccnc2ccc(OCCCN3CCN(C(=O)[C@H](CCCCNC(=O)CN4CCN(CC(=O)[O-])CCN(CC(=O)[O-])CCN(CC(=O)[O-])CC4)NC(=O)CCCC(=O)NC(CCCCNC(=O)CCCc4ccc(I)cc4)C(=O)O)CC3)cc12.[68Ga+3] (stereo partly shown) [^68Ga-TEFAPI-06] , report its measured pKd.
Reply: 7.99

Task item: Given the entry N#C[C@@H]1CC(F)(F)CN1C(=O)CNC(=O)c1ccnc2ccc(OCCCN3CCN(C(=O)[C@H](CCCCNC(=O)CN4CCN(CC(=O)O)CCN(CC(=O)O)CCN(CC(=O)O)CC4)NC(=O)CCCC(=O)NC(CCCCNC(=O)CCCc4ccc(I)cc4)C(=O)O)CC3)cc12 (stereo partly shown) , report its measured pKd.
Reply: 7.99

Task item: Given the entry Cc1cc(-c2ccc(NC(=O)CCCC(=O)N[C@@H](CCCCNC(=O)CN3CCN(CC(=O)O)CCN(CC(=O)O)CCN(CC(=O)O)CC3)C(=O)N3CCN(CCCOc4ccc5nccc(C(=O)NCC(=O)N6CC(F)(F)C[C@H]6C#N)c5c4)CC3)c(C)c2)ccc1N=Nc1ccc2c(S(=O)(=O)O)cc(S(=O)(=O)O)c(N)c2c1O , report its measured pKd.
Reply: 8.11

Task item: Given the entry Cc1cc(-c2ccc(NC(=O)CCCC(=O)N[C@@H](CCCCNC(=O)CN3CCN(CC(=O)[O-])CCN(CC(=O)[O-])CCN(CC(=O)[O-])CC3)C(=O)N3CCN(CCCOc4ccc5nccc(C(=O)NCC(=O)N6CC(F)(F)C[C@H]6C#N)c5c4)CC3)c(C)c2)ccc1N=Nc1ccc2c(S(=O)(=O)O)cc(S(=O)(=O)O)c(N)c2c1O.[68Ga+3] [^68Ga-TEFAPI-07] , report its measured pKd.
Reply: 8.11
